# system under test: Recombinant human CSF1R kinase (Homo sapiens (Human), UniProt P07333)
# Sequence (P07333 20-972): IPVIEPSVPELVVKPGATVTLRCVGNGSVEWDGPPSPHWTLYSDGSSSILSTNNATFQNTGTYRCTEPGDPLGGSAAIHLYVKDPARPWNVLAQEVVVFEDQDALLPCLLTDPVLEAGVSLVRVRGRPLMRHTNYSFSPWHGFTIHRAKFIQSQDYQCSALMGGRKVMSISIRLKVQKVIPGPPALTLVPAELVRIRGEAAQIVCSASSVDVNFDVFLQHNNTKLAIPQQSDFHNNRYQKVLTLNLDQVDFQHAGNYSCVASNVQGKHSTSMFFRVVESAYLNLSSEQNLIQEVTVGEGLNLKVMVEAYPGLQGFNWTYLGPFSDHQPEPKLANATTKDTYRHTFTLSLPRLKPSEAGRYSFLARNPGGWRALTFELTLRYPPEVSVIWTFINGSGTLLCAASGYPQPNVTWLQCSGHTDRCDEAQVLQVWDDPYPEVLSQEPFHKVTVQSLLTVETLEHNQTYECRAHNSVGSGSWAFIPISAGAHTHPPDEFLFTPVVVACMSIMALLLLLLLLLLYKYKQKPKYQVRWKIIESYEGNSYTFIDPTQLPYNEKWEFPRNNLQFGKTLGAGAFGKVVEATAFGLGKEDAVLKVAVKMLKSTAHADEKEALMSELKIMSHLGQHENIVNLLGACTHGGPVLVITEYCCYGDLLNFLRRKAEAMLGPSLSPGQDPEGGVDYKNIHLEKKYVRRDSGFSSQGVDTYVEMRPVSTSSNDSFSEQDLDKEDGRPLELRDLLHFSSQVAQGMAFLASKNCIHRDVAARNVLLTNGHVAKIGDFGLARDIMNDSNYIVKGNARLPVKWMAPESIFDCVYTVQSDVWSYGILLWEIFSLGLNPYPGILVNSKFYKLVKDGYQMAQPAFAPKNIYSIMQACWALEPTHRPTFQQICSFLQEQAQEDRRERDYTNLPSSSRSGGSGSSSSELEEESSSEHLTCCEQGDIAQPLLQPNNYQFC
# condition set: Z-LYTE Tyr 1 peptide substrate
reported property: pIC50
Answer as the number alone; pIC50 is minus log10 of concentration in mol/L.

Examples from the recorded data:
[[record]]
compound = "Cc1ncc(C(=O)Nc2ccc(Oc3ccnc(-c4cnn(C)c4)n3)cn2)c(=O)n1C"
val = 7.17

[[record]]
compound = "Cc1cc(Nc2cc(Oc3ccc(NC(=O)c4cnc(C)n(C)c4=O)nc3)ccn2)n[nH]1"
val = 7.72

[[record]]
compound = "Cc1ncc(C(=O)Nc2ccc(Oc3ccnc(C4=CCCCC4)c3)cn2)c(=O)n1C"
val = 6.38

[[record]]
compound = "Cn1cnc(-c2cc(Oc3ccc(NC(=O)c4cccn(C)c4=O)nc3)ccn2)c1"
val = 8.05

[[record]]
compound = "CNc1ccc(C(=O)Nc2ccc(Oc3ccnc(-c4cnn(C)c4)c3)cn2)c(=O)n1C"
val = 8.15

[[record]]
compound = "Cn1ccc(Nc2cc(Oc3ccc(NC(=O)c4cccn(C)c4=O)nc3)ccn2)n1"
val = 7.92


// query # pIC50 lookup, item `Cc1cnc(Nc2cc(Oc3ccc(NC(=O)c4cnc(C)n(C)c4=O)nc3)ccn2)s1`
// result 7.06

// query // pIC50 lookup, key: `Cn1ccc(Nc2cc(Oc3ccc(NC(=O)c4cnc5n(c4=O)CCC5)nc3)ccn2)n1`
// result 8.15

// query I would be grateful if you could share the reported pIC50 for `CC(C)n1cccc(C(=O)Nc2ccc(Oc3ccnc(-c4cnn(C)c4)c3)cn2)c1=O` .
// result 8.30

// query Requested field: pIC50. Item: `Cc1ncc(C(=O)Nc2ccc(Oc3ccnc(-c4ccn5ccnc5c4)c3)cn2)c(=O)n1C`
// result 7.27

// query Which pIC50 is listed for `Cc1ccc(-c2cc(Oc3ccc(NC(=O)c4cccn(C)c4=O)nc3)ccn2)cn1` ?
// result 7.34

====

# system under test: CSF1R phosphorylation in THP-1 cells (Homo sapiens (Human))
# assay name: Detection of CSF1R phosphorylation activity at cell level (THP-1, M-CSF stimulated, ELISA)
# condition set: p-CSF1R ELISA, compound 60 min, 300 ng/mL M-CSF 1 min
Documented pIC50 across a set of compounds
Keep in mind that pIC50 stands for -log10 of concentration in molar terms.

// query Can you share its pIC50? I mean this compound: `Cn1cc(Nc2cc(Oc3cnc(NC(=O)c4cccn(C)c4=O)c(F)c3)ccn2)cn1`
// result 7.55

// query Field request: pIC50 | item: `Cn1cc(-c2cc(Oc3ccc(NC(=O)c4cnc(CCO)[nH]c4=O)nc3)ccn2)cn1`
// result 5.67

// query pIC50 lookup needed for `Cc1ncc(C(=O)Nc2ccc(Oc3ccnc(Nc4ccccn4)c3)cn2)c(=O)n1C` , thanks.
// result 8.00

// query Query (compound): `Cc1cc(C(=O)Nc2ccc(Oc3ccnc(-c4cnn(C)c4)c3)cn2)c(=O)n(C)c1` ; field requested: pIC50
// result 7.68

// query Fill in the blank: the reported pIC50 of `Cc1ncc(-c2cc(Oc3ccc(NC(=O)c4cnc(C)n(C)c4=O)nc3)ccn2)s1` is ____.
// result 8.05

// query Endpoint output: pIC50 of `CC(C)c1ncc(C(=O)Nc2ccc(Oc3ccnc(-c4cnn(C)c4)c3)cn2)c(=O)n1C` . Value?
// result 7.51

====

# system under test: Recombinant human CSF1R kinase (Homo sapiens (Human), UniProt P07333)
# condition set: Z-LYTE Tyr 1 peptide substrate
reported property: pIC50
Field pIC50 (float): negative decimal logarithm of the concentration in molar.

Record excerpt, results attached:
[[record]]
compound = "Cc1ncc(C(=O)Nc2ccc(Cc3ccnc(-c4cnn(C)c4)c3)cn2)c(=O)n1C"
system_under_test = "Recombinant human CSF1R kinase (Homo sapiens (Human), UniProt P07333)"
val = 7.72

[[record]]
compound = "Cc1ncc(C(=O)Nc2ccc(Oc3ccnc(-c4ccc(F)cc4)c3)cn2)c(=O)n1C"
system_under_test = "Recombinant human CSF1R kinase (Homo sapiens (Human), UniProt P07333)"
val = 7.11

[[record]]
compound = "Cc1ncc(C(=O)Nc2ccc(Oc3ccnc(-c4cccs4)c3)cn2)c(=O)n1C"
system_under_test = "Recombinant human CSF1R kinase (Homo sapiens (Human), UniProt P07333)"
val = 6.98

[[record]]
compound = "Cc1c(F)cc(C(=O)Nc2ccc(Oc3ccnc(Nc4cnn(C)c4)c3)cn2)c(=O)n1C"
system_under_test = "Recombinant human CSF1R kinase (Homo sapiens (Human), UniProt P07333)"
val = 8.10

[[record]]
compound = "Cn1cccc(C(=O)Nc2ccc(Oc3ccnc(-n4cncn4)c3)cn2)c1=O"
system_under_test = "Recombinant human CSF1R kinase (Homo sapiens (Human), UniProt P07333)"
val = 6.76

[[record]]
compound = "Cc1ncc(C(=O)Nc2ccc(Oc3ccnc(-c4cnn(C(C)C)c4)c3)cn2)c(=O)n1C"
system_under_test = "Recombinant human CSF1R kinase (Homo sapiens (Human), UniProt P07333)"
val = 7.48

[[record]]
compound = "Cc1ncc(C(=O)Nc2ccc(Oc3ccnc(-c4ccncc4)c3)cn2)c(=O)n1C"
system_under_test = "Recombinant human CSF1R kinase (Homo sapiens (Human), UniProt P07333)"
val = 7.57

[[record]]
compound = "CC(C)n1cccc(C(=O)Nc2ccc(Oc3ccnc(-c4cn(C)cn4)c3)cn2)c1=O"
system_under_test = "Recombinant human CSF1R kinase (Homo sapiens (Human), UniProt P07333)"
val = 8.10

[[record]]
compound = "Cc1ncc(-c2cc(Oc3ccc(NC(=O)c4cnc(C)n(C)c4=O)nc3)ccn2)s1"
system_under_test = "Recombinant human CSF1R kinase (Homo sapiens (Human), UniProt P07333)"
val = 7.70

[[record]]
compound = "Cc1ncc(C(=O)Nc2ccc(Oc3ccnc(Nc4ccnn4C)c3)cn2)c(=O)n1C"
system_under_test = "Recombinant human CSF1R kinase (Homo sapiens (Human), UniProt P07333)"
val = 8.22


// query Report pIC50 for `Cn1cnc(-c2cc(Oc3cnc(NC(=O)c4cccn(C)c4=O)c(F)c3)ccn2)c1` please.
// result 7.55

// query Reported pIC50, molecule `COc1cc(Oc2ccnc(-c3cnn(C)c3)c2)ccc1NC(=O)c1cccn(C(C)C)c1=O` : ____
// result 7.89

// query Any idea what its pIC50 is? The molecule is `Cc1ncc(C(=O)Nc2ccc(Oc3ccnc(-c4ccccc4)c3)cn2)c(=O)n1C`
// result 7.25

// query Tell me the measured pIC50 of `CC(C)n1cccc(C(=O)Nc2ccc(Oc3ccnc(-c4cn(C)nn4)c3)cn2)c1=O` , please.
// result 8.22

// query So what does the record say about pIC50 for `Cn1cc(-c2cc(Oc3ccc(NC(=O)c4ccc5n(c4=O)CCC5)nc3)ccn2)cn1` ?
// result 8.10

// query If you can, please state the reported pIC50 value of `Cc1cc(Nc2cc(Oc3ccc(NC(=O)c4cccn(C)c4=O)nc3)ccn2)n[nH]1` .
// result 7.72

// query Could you tell me which pIC50 is on file for `Cn1cc(-c2cc(Oc3ccc(NC(=O)c4cccn(C)c4=O)nc3)ccn2)cn1` ?
// result 8.30

====

Entries annotated with measured IC50
# system under test: CSF1R phosphorylation in THP-1 cells (Homo sapiens (Human), UniProt P07333)
# Sequence (P07333 20-972): as above
# assay name: Detection of CSF1R phosphorylation activity at cell level (THP-1, M-CSF stimulated, ELISA)
# condition set: p-CSF1R ELISA, compound 60 min, 300 ng/mL M-CSF 1 min
Your answer is read as nM, so omit the unit and give the number.

Sample answers from the record:
[[record]]
compound = "Cc1ncc(C(=O)Nc2ccc(Oc3ccnc(-c4ccc5nccn5c4)c3)cn2)c(=O)n1C"
reported_property = "IC50"
val = 21

[[record]]
compound = "CC(C)n1cccc(C(=O)Nc2ccc(Oc3ccnc(-c4ccn(C)n4)c3)cn2)c1=O"
reported_property = "IC50"
val = 36

[[record]]
compound = "CC(C)n1cccc(C(=O)Nc2ccc(Oc3ccnc(-c4cnn(C)c4)c3)cn2)c1=O"
reported_property = "IC50"
val = 7


// query Would you mind telling me what IC50 value was observed for `Cc1ncc(C(=O)Nc2ccc(Oc3ccnc(Nc4ccn(C(F)F)n4)c3)cn2)c(=O)n1C` ?
// result 6

====

# system under test: Recombinant human CSF1R kinase (Homo sapiens (Human))
# condition set: Z-LYTE Tyr 1 peptide substrate
Each record here notes measured IC50.
A number alone suffices; assume nM.

[[record]]
compound = "Cc1ncc(C(=O)Nc2ccc(Oc3ccnc(Nc4ccccn4)c3)cn2)c(=O)n1C"
system_under_test = "Recombinant human CSF1R kinase (Homo sapiens (Human))"
reported_property = "IC50"
val = 5

[[record]]
compound = "Cn1cc(-c2cc(Oc3ccc(NC(=O)c4cccn(CCO)c4=O)nc3)ccn2)cn1"
system_under_test = "Recombinant human CSF1R kinase (Homo sapiens (Human))"
reported_property = "IC50"
val = 6


Now look at this entry.
// query API: value(readout=IC50, system=Recombinant human CSF1R kinase (Homo sapiens (Human))) for record `Cc1c(F)cc(C(=O)Nc2ccc(Oc3ccnc(Nc4ccnn4C)c3)cn2)c(=O)n1C`
// result 5

From: patent US12435062B2
